Origin of the recorded values: the NTF2 design screens of Basanta et al. (2020)

- ASSAY_INFO: protease stability score; higher = more stable; yeast display proteolysis, trypsin and chymotrypsin
Threshold rule: protease stability score greater than or equal to 2 is YES; below that, NO.

Look over these answered cases.
>>> label("REIEKSLEESLKMWLENLVTGDERQLSELVDPDAKLEVGDKHHVGMETISHMIRHMRIESIEIKSIRIFDGRAEIHAYVLGNINGQRKDLNEKLHWEKINGRWEVRKILLE")
"YES"
>>> label("SDEEHLAERASKEWRHSVRTGDEHQLHEMIDPHVKLIVGDKEFHGREHFLEHLKHLRIKNVDIKRIRIIGDKVEIDSELHGHVNGVEIRTREHIHIEKIDGRWVITEVIWV")
"NO"
>>> label("DEREEASERMAELIVHLFETGDEDLIRRMVDPHVRWEFNGREIMGRELTTHVLHEIYHRVKNIRYRIESLDIQGDWLLVNSRLHVNGRTIEIHLIVEKVNGRWTLRELIVKVD")
"NO"
>>> label("SEEEEAARHVLEEWLRSIRTGDEEFTERLLDPEARFHVNGVEIIGREHIIRRLREIRIHDIKMDVREIRIVDGRISIDVTYRIDGEVNGVKVDTSHEVRLVFVKINGRWLNRKEEVR")
"NO"
>>> label("DEEEHWLKHWTDLHLFARITGDEELLMKMLDPDVRFHIGDKESHGREEVARLLIELWIHNQHVRRRIIVNGVSHIHGELDGEINGVRHRTEIEIHILVIDGRIHEIIIKVH")
"NO"

**Q:** State whether the measured protease stability score reaches 2, counting equality as reaching it, for `DEEHEFMRKMSEEFVHIWLTGDEERLIKLLDPNAKLNIDGVEHHGWKEVHRYLKELKEELGVDHFHVRRITIRYIDGVAISIVHYESHINGRHHELEIHNVVNKIDGRWHLQSIHIHFH`
**A:** YES

* * *

- ASSAY_INFO: protease stability score; higher = more stable; yeast display proteolysis, trypsin and chymotrypsin;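 also: relative to predicted unfolded state with 0 unfolded-like and 1 meaning tenfold more protease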
ASSAY_READOUT: protease stability score
Just the number, please, no unit attached.

>>> value_reported("SETREIEEEWLRMMFENFITGDWKEIYKYADPNMRFTLSIGEKQERRHGRESMFHAFRRLEEDLGAKHVRLEDSTVYNGRVEINITLEDGDKHINRYIHIQVVNGRMHTIEVSFR")
0.628
>>> value_reported("DEEDEELHRILQLLKEYWKTGDWERFHELADPNPLLIINGVENHGMDSVKHAWEEFRRRIDHNEKIEDKDSKRQGEFIVLHVKVDGHVNGRRTETDMHIILLIVNGKVKDVEIRIR")
1.38
>>> value_reported("SEEDEHLERLFRDLIDSFVTGDEDSWHQLADPNARLIVGDKTYHGREKISEYWRRMREEIRVEIKVDHVDIQGDKVHSRVTLIVRINGREIRRDTHMLIIVWNGRFKEERIIPR")
1.25
>>> value_reported("DETREIAIKMIELWIHAVKTGDEDRMTELLDPNALLIIGDKKIHGRENLLRFWKRIDHHHLRHIEIKEITFFNGQVEDDGIVEEELRVNGREFEIDSRVLYILKKVDGRWIMRTIEVK")
1.88

**Q:** Identify the reported protease stability score for the following entry. `SEYEEEVRRAMELEIRSIKTGNEELIKHLMDPNVRLVIGDKNFHGREAIEVFVERFDYIHEVEITSIDLQGDFVNMRGVLDGRINGQRLRTKVHYISRKVDGRWFSESIHIR`
**A:** 0.66

* * *

- ASSAY_INFO: protease stability score; higher = more stable; yeast display proteolysis, trypsin and chymotrypsin;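 also: relative to predicted unfolded state with 0 unfolded-like and 1 meaning tenfold more protease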
ASSAY_READOUT: protease stability score
Just the number, please, no unit attached.

>>> value_reported("SEEEEDAERAERLIFEYHRTGDERLFRELVDPNVRLRVGDKEYHGREDFLRIMLELRIDRMHLHEIRVVDGRVHSRTEVDGTWNGRKFLTETESIIIKINGRWVLHSFHFH")
1.69

**Q:** Identify the reported protease stability score for the following entry. `SEEEEQVERAIKLTEELIDTGNWKEISKLADPNARLNVNGREFHGREMVSENIKRFFEELGVDHIEVKHIRIQGNKVEVDTELRVGDKYHDLHLLFLKVNGQWLLKEVTVR`
**A:** 1.22

**Q:** Identify the reported protease stability score for the following entry. `DRIEEEFEFALRHLIHNWVTGDETRLQKLADPNVRTVFEGREHHGRESFTELVHEIRFHDFRLRDYKIQGNKIVVDGEFDVDINGVRRIIRVELEIIKINGRWYIHSISFL`
**A:** 0.203

**Q:** Identify the reported protease stability score for the following entry. `SEEQRLSEELFKRLVDYLLTGDWHSLKELLDPHVKVVVNGKEEIGRERMARHWLELHEKVPNMKSEFRLRYYEIQGDKAHYEVEIILHVNGRIRHIDIEVVMEKVDGRWMLHSITIR`
**A:** 1.3

**Q:** Identify the reported protease stability score for the following entry. `SEDDKMQEIAVELLEHTLKTGDEHTSKKLVDPHVRLQIGDKEHHGRDEVTRWLTELAQRADHMHIEIKDMFNVNGVVIMHGTLKIHIGDKELRLDVEWIILKYNGKWLIHSIHIR`
**A:** 1.94

**Q:** Identify the reported protease stability score for the following entry. `DEIKRHFDEFIKVLREIIRTGDEEDLVRLMDPNVKLEVGDKRFHGMEVLDVLHKRADHLHEFDIHDWNIQGDKARVDLRLVGQFNGRTVIDNTTLWYEKIDGKWFIKSMRIH`
**A:** 1.18

**Q:** Identify the reported protease stability score for the following entry. `SEWEKDLELALRFVMHAFTTGNWEDLLKFFDPDVRIEVGDKEIHGRHVFFEFLEKLGVKHLRLEIELNHFEIQGDKIHEHGIYRFTYHYNGRVEKKEHDTRVHVTKINGRWYLTHQRVD`
**A:** 0.668

* * *

- ASSAY_INFO: protease stability score; higher = more stable; yeast display proteolysis, trypsin and chymotrypsin;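 also: relative to predicted unfolded state with 0 unfolded-like and 1 meaning tenfold more protease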
# maps each entry to its protease stability score
Just the number, please, no unit attached.

>>> value_reported("DDRERDSREAQEILREILLTGDFKTLYELADPHYRHNWDGRTIHGMETIVKLFLDLGMEIRDMRFRHLEIQGDFIHLDVDINGRINGKEKNVKIRVHARKIDGRWVLHSSERD")
1.38

**Q:** Identify the reported protease stability score for the following entry. `SEKEDIERKWAERTLETIETGDEHTRRELLDPHVRIIINGKDHHGREFAEEEWRRLGVDHFRTHEYEIQGNFLHVRGEMEIDGKRVEVILNFTIVDGRIKQIEMVYL`
**A:** 2.03

**Q:** Identify the reported protease stability score for the following entry. `DEEERDSKRALELMIHWVETGNEERLSRLIDPHARLEIGDKHHHGREEFEKWFRRIDYLQYYTVRHIELQGDKIEVKVELTFIIDGQEVHTETRVIAIKFDGRWRLTSMEIN`
**A:** 1.54

* * *

- ASSAY_INFO: protease stability score; higher = more stable; yeast display proteolysis, trypsin and chymotrypsin;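 also: relative to predicted unfolded state with 0 unfolded-like and 1 meaning tenfold more protease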
Threshold rule: protease stability score greater than or equal to 1 is YES; below that, NO.

Look over these answered cases.
>>> label("DDEEEDYERAFKIFIDFVKTGDWRLLKELADPNVRNVIGDKEFMGRETFTKWVFDVRAQFDHVEIRIRDFEIQGNKLILYTELHLHQGDKSLTLELRIVILKVNGKWLMHSFRLQ")
"YES"
>>> label("SDEDKELEHVMKKFEDALSTGDENTLYSLLDPNVKLEIGDKEIHGMEEFVRVMKRHLHELGAKFRSITIEHWNIIGEKVRLHSKIILDFNGRDIFLNTHIVMFKFDGRWIFETFKIQ")
"YES"
>>> label("DEEEKLVRYLRELMKKAWLTGDEDYIRKLMDPDTWFIYGDKHWHGMEEVTKAFEYLLHHLRIEHSIDRHVSIIGNKVHIDGEVDVTIGEKRDRRRQEIILIIVDGRIKTIEFHER")
"NO"

**Q:** State whether the measured protease stability score reaches 1, counting equality as reaching it, for `SEEEELLEHAYRHLIHTILTGDERLIEEMLDPNVRISIGEYHSHGREEAIRDVHELGIKHSERLHLTHVDSQGNKVRLHVEFVTNVNGVRRHVTVTWHIIKVNGKWYIESWDHQ`
**A:** YES

**Q:** State whether the measured protease stability score reaches 1, counting equality as reaching it, for `SEEQDWLREALEIFEKTIHTGDEDTSKELADPHVRSIINGKDFVGMEIWTKILEELNKRYDHIELVFHKVENINGRVIIHGTDTIRVDGVERKIDTIIYARKVNGKWLSKSVEMR`
**A:** YES

**Q:** State whether the measured protease stability score reaches 1, counting equality as reaching it, for `DHEREDMRRFVQEVLRVIETGDEDIYMRLLDPHYKVDFNGREIIGREELLRFFRDLGVDRIEADKEDVRSQGDKVITNTHITVNGRRIEMRVIVIKIDGQWVLHSLEFR`
**A:** YES
